test: qHTS assay to identify small molecule antagonists of the estrogen receptor alpha (ER-alpha) signaling pathway using the BG1 cell line (AID 743080);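 also: BG1 cells stimulated with 17beta-estradiol alongside compound; nearly all actives have a fitted effect of over 25% in size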
test.parameters: BG1Luc4E2 ERE-luciferase antagonist mode, luminescence; series mostly up to 70.3 µM
Records with an inconclusive call do not appear. Activity calls are given as the source filed them. Calls follow the shape of the full dose curve.
Answer with one of the outcomes active, inactive

These recorded examples may help you get a feel for the data.
CCC=CC#N; inactive
Cc1cc(C)c(N)cc1C; inactive
CO[C@]1(NC(=O)CSC(F)F)C(=O)N2C(C(=O)O)=C(CSc3nnnn3CCO)CO[C@H]21; inactive
COC(=O)CS; inactive
O=C=Nc1ccc(Cl)c(Cl)c1; inactive
CC1(CN2CCC(n3c(=O)[nH]c4ccccc43)CC2)OCc2ccccc2-n2cccc21 (stereo not drawn); active
O=C1c2ccccc2C(=O)C1c1ccc(Br)cc1; inactive
CC1=Nc2ccc3ccccc3c2C1(C)C; inactive

Outcome? "C/C=C(/C(=C/C)c1ccc(O)cc1)c1ccc(O)cc1"
inactive

What did this assay record as the result for "CC(C)Nc1cccnc1N1CCN(C(=O)c2cc3cc(NS(C)(=O)=O)ccc3[nH]2)CC1" ?
inactive

Kindly provide the recorded test outcome for the following compound: "CN(C)CCN1C(=O)c2ccccc2N(C)c2ccccc21"
inactive

Write down the call the test reported for this compound. Item: "CN(C)CCC=C1c2ccccc2C=Cc2ccccc21"
inactive

What classification did "O=Cc1c2ccccc2c(Cl)c2ccccc12" end up with in this test?
inactive
